Values were extracted from paper PMC9328652.

# Experiment: Pharmacokinetic studies in CD-1 mice
# Measurement Parameters: Swiss albino CD-1, mouse, whole blood, po, 12.5 mg/kg, AUC0-t, fasted CD-1 mice, oral gavage 12.5 mg/kg
Property Measured: AUC(0-t)
The reply should read as a number followed by its unit.

Task: Record request: AUC(0-t) value, item CC[C@H]1OC(=O)[C@H](C)[C@@H](O[C@H]2C[C@@](C)(OC)[C@@H](O)[C@H](C)O2)[C@H](C)[C@@H](O[C@@H]2O[C@H](C)C[C@H](N(C)C)[C@H]2O)[C@](C)(O)C[C@@H](C)CN(CCCNc2ccnc3cc(Cl)ccc23)[C@H](C)[C@@H](O)[C@]1(C)O
Output: 9510 ng·h/mL
